Here, each record is paired with measured A450 data.
# targetDesc: T1, Human Id2: Histidine (human, UniProt Q02363 1-134, limits assumed)
# T1 construct: Fusion protein made in E. coli from vector pGW07; also called h-Id2: His; not shown: His tag
# T1 sequence (looked up): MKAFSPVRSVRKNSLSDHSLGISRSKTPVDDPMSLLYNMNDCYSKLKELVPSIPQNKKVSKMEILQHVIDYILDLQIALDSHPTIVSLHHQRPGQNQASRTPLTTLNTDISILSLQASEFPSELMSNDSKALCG
# protocol: ELISA, Ab 0.250 µg/ml
Please state the number and follow it with the unit.

>>> result("rabbit monoclonal anti-mouse/human Id3, clone #BCH-4/#6-1 (antibody, V domains shown, Rabbit IgG from a rabbit hybridoma; also called m/h Id3 MoAb 6-1) VH: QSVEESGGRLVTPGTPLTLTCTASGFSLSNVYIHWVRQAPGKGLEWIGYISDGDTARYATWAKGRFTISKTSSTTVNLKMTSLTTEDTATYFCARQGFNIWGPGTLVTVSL VL: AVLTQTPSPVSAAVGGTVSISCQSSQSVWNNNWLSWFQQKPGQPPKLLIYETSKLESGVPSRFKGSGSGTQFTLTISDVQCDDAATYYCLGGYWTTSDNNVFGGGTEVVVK")
"0.056 A450"

Query: What A450 value was documented for this binder, rabbit monoclonal anti-mouse/human Id3, clone #BCH-4/#42-1 (antibody, V domains shown, Rabbit IgG from a rabbit hybridoma; also called m/h Id3 MoAb 42-1) VH: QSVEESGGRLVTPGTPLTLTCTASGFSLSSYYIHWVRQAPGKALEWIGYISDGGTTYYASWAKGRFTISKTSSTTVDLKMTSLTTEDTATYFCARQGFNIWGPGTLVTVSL VL: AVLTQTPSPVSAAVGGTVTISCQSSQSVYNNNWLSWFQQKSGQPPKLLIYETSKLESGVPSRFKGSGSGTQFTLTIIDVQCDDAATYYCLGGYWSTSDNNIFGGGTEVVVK ?
Reply: 0.051 A450
